Assay System: Glutathione-S-transferase-labeled FXR human protein (Homo sapiens (Human))
Sequence (Q96RI1 whole entry): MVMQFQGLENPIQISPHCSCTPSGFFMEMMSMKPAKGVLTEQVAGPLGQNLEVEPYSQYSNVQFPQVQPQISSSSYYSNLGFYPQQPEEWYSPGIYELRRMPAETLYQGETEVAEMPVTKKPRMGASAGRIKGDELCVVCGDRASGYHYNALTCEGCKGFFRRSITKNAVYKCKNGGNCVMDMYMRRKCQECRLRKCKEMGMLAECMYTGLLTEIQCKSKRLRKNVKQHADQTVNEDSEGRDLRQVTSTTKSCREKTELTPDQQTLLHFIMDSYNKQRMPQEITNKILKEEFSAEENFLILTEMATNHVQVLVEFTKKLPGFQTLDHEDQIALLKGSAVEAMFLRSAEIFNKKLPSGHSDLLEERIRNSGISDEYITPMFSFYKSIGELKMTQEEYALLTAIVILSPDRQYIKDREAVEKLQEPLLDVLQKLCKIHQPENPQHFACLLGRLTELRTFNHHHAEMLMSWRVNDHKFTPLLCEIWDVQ
Measurement Description: FXR biochemical assay (alphascreen)
Condition Summary: FXR with biotin-labeled steroid receptor coactivator, read-out: EC50 (nM) Mean ± SEM, activation effect on FXR
Reported Endpoint: EC50 (nM)

> print(dat)
                                   compound  reported.endpoint  reading.unit  reported.measurement
1  O=C(O)c1ccnc(N2CC(O)(c3ccc(OCc4c(-c5c(Cl)cccc5Cl)noc4C4CC4)cc3Cl)C2)c1 [PX-104, reference compound]               EC50            nM                  65.2

These data points were gathered from patent US12215098B2.
